Attribution: the RNAGym collection of RNA variant scans (doi:10.7554/elife.80360)

B1: CPEB3 Ribozyme (parent)
chain: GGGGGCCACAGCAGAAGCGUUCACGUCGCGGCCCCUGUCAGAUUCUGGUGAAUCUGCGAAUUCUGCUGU

- Variants of: B1
- Method Description: self-cleavage, relative activity (ratio to wild type); higher = more cleavage; co-transcriptional
Category scheme (self-cleavage): low band (below 0.2), middle band (0.2 to below 0.7), high band (0.7 or more)

    sequence_variant  label_value
 0          G1U U44A     low band
 1         A13G C34G  middle band
 2         A13U U46G    high band
 3         C29U U49A  middle band
 4         C34A U61A  middle band
 5         C18A G56C     low band
 6              G56A    high band
 7           G5C C9A  middle band
 8          C7A A51C  middle band
 9          G3C G50A     low band
10          C6U U43A    high band
11         U43C U53A    high band
12         A40G C63U    high band
13         G14C C33G  middle band
14         G11C G48C    high band
15         C32A G68A    high band
16          G3C U49C     low band
17         U20A G47A     low band
18         C18A C34A     low band
19         A15C U36A  middle band
20         A16U G58A    high band
21         C22U G56U     low band
22         A13G U53G    high band
23         C54A U62C  middle band
24         C24U A59G    high band
25         G25C C29U     low band
26          G5U G31A     low band
27         G14C G31C     low band
28         A52G U62A    high band
29         G25U U67C  middle band
30         U55A G56A    high band
31         U20A G56C     low band
32         A51G C57U  middle band
33          G4U G50A    high band
34         G17C U43C     low band
35         C34A A52G  middle band
36         A40G G47A    high band
37          G4A G31U     low band
38         C18A G50U  middle band
39         C18U U61C  middle band
40          G1A C63U     low band
41         U38A U49G    high band
42         U36C G47C    high band
